Cited source: the CheMixHub viscosity set

Test: xn = mol fraction of the nth substance listed
Details: 303.15 K; 101.33 kPa; x2 = 0.65
// reported viscosity per item
Kindly provide the numeric value in mPa·s only, without the unit symbol.

>>> print(df.to_string())
                  compound  readout_value
0     CC[N+](=O)[O-] + CCO          0.656
1  CC[N+](=O)[O-] + CC(C)O          0.819
2      CC[N+](=O)[O-] + CO          0.485

Consider now this further compound.
// query So what does the record say about viscosity for CC[N+](=O)[O-] + CCCO ?
// result 0.902
